Tested On: μ opioid receptor (UniProt P35372)
Sequence (P35372 whole entry): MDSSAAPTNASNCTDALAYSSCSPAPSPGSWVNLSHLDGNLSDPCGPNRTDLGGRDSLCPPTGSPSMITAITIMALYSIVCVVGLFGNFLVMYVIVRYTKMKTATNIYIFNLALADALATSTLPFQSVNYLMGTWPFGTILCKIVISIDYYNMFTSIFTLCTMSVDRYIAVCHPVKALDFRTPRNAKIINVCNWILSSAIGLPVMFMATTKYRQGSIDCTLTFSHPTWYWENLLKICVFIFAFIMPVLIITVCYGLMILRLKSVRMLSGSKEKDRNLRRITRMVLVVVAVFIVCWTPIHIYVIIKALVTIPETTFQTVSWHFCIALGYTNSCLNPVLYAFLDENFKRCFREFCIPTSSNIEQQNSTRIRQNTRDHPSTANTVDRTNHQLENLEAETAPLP
Starred links: 1 amine or outer side, 2 acyl side, 3 side chain; linkers in the order of their positions; H or OH if unused. Non-standard residues stand in square brackets, D forms with d. No end group written: not given here. Phe(2-(4-F-phenyl)) = O=C([C@H](Cc1ccccc1-c1ccc(F)cc1)N[*:1])[*:2]; Phe(2-Ph) = N[C@@H](Cc1ccccc1-c1ccccc1)C(=O)O; Dmt = Cc1cc(O)cc(C)c1C[C@H](N)C(=O)O
Quantity Kind: IC50 in the guinea pig ileum (GPI) assay (nM)
Provide only the numeric value, understood in nM.

Give me measured IC50 in the guinea pig ileum (GPI) assay, please, for this binder: [Dmt][dR][Phe(2-(4-F-phenyl))]G-NH2 (N-terminus assumed; SMILES Cc1cc(O)cc(C)c1C[C@H](N)C(=O)N[C@H](CCCNC(=N)N)C(=O)N[C@@H](Cc1ccccc1-c1ccc(F)cc1)C(=O)NCC(N)=O) [Dmt-D-Arg-Phe(2-(4-F-phenyl))-Gly-NH2]
0.801

Could you now look at the following binder, please?
Give me measured IC50 in the guinea pig ileum (GPI) assay, please, for this binder: [Dmt][dR][Phe(2-Ph)]G-NH2 (N-terminus assumed; SMILES Cc1cc(O)cc(C)c1C[C@H](N)C(=O)N[C@H](CCCNC(=N)N)C(=O)N[C@@H](Cc1ccccc1-c1ccccc1)C(=O)NCC(N)=O) [Dmt-D-Arg-Phe(2-phenyl)-Gly-NH2]
3.47

Data provenance is paper PMC6005765.
